Assignment: determine reported viscosity for the given compounds.
Settings: 308.15 K; 101.3 kPa; Liquid; Capillary tube (Ostwald / Ubbelohde) method
Give bare numbers, in mPa·s.

Would you please look over these solved cases?
compound	reported-metric	unit-abbrev	readout-number
CNC(C)=O [N-methylacetamide]	viscosity	mPa·s	3.67
OCCOCCOCCO [triethylene glycol]	viscosity	mPa·s	23.84
OCCOCCO [diethylene glycol]	viscosity	mPa·s	17.59

Moving on to the next compound.
Ask: Fill in: viscosity of OCCO [1,2-ethanediol] is ___
Reply: 10.59

Reference source for all entries: the NIST ThermoML archive (doi:10.1021/je020178w)
